Below, each entry is listed with its recorded IC50 at 72 h.
procedure.details: MTT viability assay, ciPTEC-OAT1
Type: cell-based, human
assay.setup: human, ciPTEC-OAT1 cells (monolayers, 96-well); read-out: IC50 on cell viability (MTT), 72 h
parameter.measured: IC50 at 72 h (µM)

INSERT INTO results (smi, parameter_measured, unit_descriptor, measured) VALUES
  ('Nc1ncnc2c1ncn2CCOCP(=O)(O)O', 'IC50 at 72 h', 'µM', 230),
  ('Nc1ccn(C[C@@H](CO)OCP(=O)(O)O)c(=O)n1', 'IC50 at 72 h', 'µM', 69),
  ('C[C@H](Cn1cnc2c(N)ncnc21)OCP(=O)(O)O', 'IC50 at 72 h', 'µM', 223);

----------
Below, each entry is listed with its recorded IC50 at 24 h.
procedure.details: MTT viability assay, ciPTEC-OAT1
Format: cell-based, human
assay.setup: human, ciPTEC-OAT1 cells (monolayers, 96-well); read-out: IC50 on cell viability (MTT), 24 h
parameter.measured: IC50 at 24 h

INSERT INTO measurements (smi, measured) VALUES
  ('C[C@H](Cn1cnc2c(N)ncnc21)OCP(=O)(O)O', '114 µM'),
  ('Nc1ncnc2c1ncn2CCOCP(=O)(O)O', '462 µM'),
  ('Nc1ccn(C[C@@H](CO)OCP(=O)(O)O)c(=O)n1', '613 µM');

----------
target.under.test: OAT1 (Homo sapiens)
Sequence (Q4U2R8 1-563): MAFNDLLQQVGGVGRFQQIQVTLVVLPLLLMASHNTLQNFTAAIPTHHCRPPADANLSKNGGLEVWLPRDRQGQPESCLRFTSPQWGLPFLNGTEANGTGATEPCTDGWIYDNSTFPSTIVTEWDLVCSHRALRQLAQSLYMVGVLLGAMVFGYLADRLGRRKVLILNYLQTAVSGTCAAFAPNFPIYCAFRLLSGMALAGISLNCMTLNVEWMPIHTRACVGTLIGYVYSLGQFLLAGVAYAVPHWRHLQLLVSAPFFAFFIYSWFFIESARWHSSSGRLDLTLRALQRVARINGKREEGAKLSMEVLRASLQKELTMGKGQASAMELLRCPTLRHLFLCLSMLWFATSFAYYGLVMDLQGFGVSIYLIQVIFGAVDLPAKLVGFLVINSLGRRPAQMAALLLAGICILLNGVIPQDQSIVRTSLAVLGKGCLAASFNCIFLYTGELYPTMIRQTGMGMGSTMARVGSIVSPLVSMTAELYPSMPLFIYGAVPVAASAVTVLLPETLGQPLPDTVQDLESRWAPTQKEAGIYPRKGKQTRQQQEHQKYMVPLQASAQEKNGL
procedure.details: Inhibition of OAT-mediated fluorescein uptake in ciPTEC-OAT1
Type: cell-based
Parameters: host or cells: ciPTEC (human conditionally immortalized proximal tubule epithelial cells), lentiviral transduction
Protocol: All chemicals were obtained from Sigma, unless stated otherwise. Uptake was stopped by washing three times with ice-cold HBSS (4°C). Non-linear regression with variable slope constraining the top to 100% was used to fit the data after background subtraction with GraphPad Prism. Statistics was performed by two-way ANOVA (two-tailed, α = 0.05) using GraphPad Prism as well. […]
pIC50: −log10 of the molar value.
Below, each entry is listed with its recorded pIC50.
parameter.measured: pIC50

INSERT INTO measurements (compound, measured) VALUES
  ('Nc1ccn(C[C@@H](CO)OCP(=O)(O)O)c(=O)n1 [Cidofovir, cidofovir]', 4.15),
  ('Nc1ncnc2c1ncn2CCOCP(=O)(O)O [Adefovir, adefovir]', 4.64),
  ('Cc1cn([C@H]2C[C@H](N=[N+]=[N-])[C@@H](CO)O2)c(=O)[nH]c1=O [Zidovudine, zidovudine]', 4.85),
  ('C[C@H](Cn1cnc2c(N)ncnc21)OCP(=O)(O)O [Tenofovir, tenofovir]', 4.38);
